molecular target: T1, human MSLN-R2-his protein (human, UniProt Q13421 391-486); assay: ELISA, coated antigen; antibody 100 nM
T1 construct: also called human MSLN-R2 protein; hMSLN-R2-his; not shown: His tag
T1 sequence (Q13421 other isoform, or with tags, fused parts or gaps): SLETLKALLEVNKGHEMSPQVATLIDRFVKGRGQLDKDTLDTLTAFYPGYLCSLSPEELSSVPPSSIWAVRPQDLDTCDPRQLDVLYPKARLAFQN
VALUE TYPE: OD450 (OD450)
Dear colleague, please return just the value in OD450, with no unit written.

- S009-F3.7.3 (antibody, human IgG1, kappa, V domains shown, Human-murine chimeric antibody: murine VH/VL on human IgG1 heavy chain constant region and human kappa constant region) VH: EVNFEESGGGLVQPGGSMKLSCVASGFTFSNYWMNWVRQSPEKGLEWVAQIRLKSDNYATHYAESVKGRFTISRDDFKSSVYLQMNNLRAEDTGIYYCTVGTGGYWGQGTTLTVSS VL: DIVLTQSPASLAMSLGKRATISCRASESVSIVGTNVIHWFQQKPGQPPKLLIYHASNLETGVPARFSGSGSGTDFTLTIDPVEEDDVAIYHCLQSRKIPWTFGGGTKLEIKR: 0.12
- S009-F3.74.20 (antibody, human IgG1, kappa, V domains shown, Human-murine chimeric antibody, human IgG1/kappa constant regions) VH: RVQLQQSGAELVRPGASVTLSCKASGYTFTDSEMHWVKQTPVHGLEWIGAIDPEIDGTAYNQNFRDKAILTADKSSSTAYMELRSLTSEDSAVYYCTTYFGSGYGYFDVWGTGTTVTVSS VL: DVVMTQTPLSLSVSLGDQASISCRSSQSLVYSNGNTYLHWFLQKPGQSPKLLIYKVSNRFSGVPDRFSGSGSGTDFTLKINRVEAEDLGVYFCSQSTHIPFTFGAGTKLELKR: 0.09
- S009-F3.80.22 (antibody, human IgG1, kappa, V domains shown, Human-murine chimeric antibody, human IgG1/kappa constant regions) VH: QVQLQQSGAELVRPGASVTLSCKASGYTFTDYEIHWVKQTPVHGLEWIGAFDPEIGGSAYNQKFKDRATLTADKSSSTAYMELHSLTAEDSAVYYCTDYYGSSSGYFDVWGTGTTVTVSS VL: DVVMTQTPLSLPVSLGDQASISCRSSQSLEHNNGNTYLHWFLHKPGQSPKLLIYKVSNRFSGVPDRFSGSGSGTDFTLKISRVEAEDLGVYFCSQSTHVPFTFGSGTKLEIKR: 0.06

Entry under test: S009-F3.16.1 (antibody, human IgG1, kappa, V domains shown, Human-murine chimeric antibody, human IgG1/kappa constant regions) VH: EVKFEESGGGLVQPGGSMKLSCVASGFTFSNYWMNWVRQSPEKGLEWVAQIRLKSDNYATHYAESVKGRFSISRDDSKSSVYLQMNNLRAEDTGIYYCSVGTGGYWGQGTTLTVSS VL: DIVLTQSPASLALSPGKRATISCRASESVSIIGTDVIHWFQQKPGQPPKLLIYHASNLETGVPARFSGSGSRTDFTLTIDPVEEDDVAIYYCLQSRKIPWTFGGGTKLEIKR . Its OD450 was 0.12
